The reported numbers originate from paper PMC7774954.

studySystem: T1, PDZD7-3, third PDZ domain of PDZD7 (human, UniProt Q9H5P4 862-934)
T1 construct: PDZD7, human, PDZ domain 3; not shown: His6, N-terminal, kept; MBP, N-terminal, kept
T1 sequence (looked up): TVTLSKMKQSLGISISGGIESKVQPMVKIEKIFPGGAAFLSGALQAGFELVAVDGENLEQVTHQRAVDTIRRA
experimentalProtocol: fluorescence polarisation; competitive: pre-formed complex of PDZ domain (>60-80% complex) and 50 nM fluorescent tracer peptide, increasing amount of unlabeled PTEN peptide (8 concentrations); 20 mM HEPES pH 7.5, 150 mM NaCl, 0.5 mM TCEP, 0.01% Tween 20; triplicate; competitive binding model (ProFit); apparent
testParameters: both partners purified
Where no end group is shown, it is not given here. The star is where a group is joined. Biotin = O=C1N[C@H]2[C@H](CS[C@H]2CCCCC(=O)*)N1; TTDS = NCCCOCCOCCOCCCNC(=O)CCC(=O)*
endpointLabel: Kd
Phrase the answer as number then unit, nothing more needed.

{Biotin-TTDS}-DEDQHTQITRV (PTEN, human, canonical isoform I, residues 393-403 with K402R; source: synthetic peptide (Chemical Peptide Synthesis Service of the IGBMC)) [PTEN_KR, 11-mer PTEN PDZ-binding motif peptide with K402R] ... 8.2 µM

Kd in this record for {Biotin-TTDS}-PFDEDQHTQITKV (source: synthetic peptide, bought: JPT Innovative Peptide Solutions (70%-80% purity)) [PTEN_13, 13-mer wild-type PDZ-binding motif peptide of PTEN] : 5.76 µM

Kd in this record for {Biotin-TTDS}-DEDQHTQITK(Ac)V (PTEN, human, canonical isoform I, residues 393-403, K402 acetylated (acK); source: synthetic peptide (Chemical Peptide Synthesis Service of the IGBMC)) [PTEN_Ac, 11-mer PTEN PDZ-binding motif peptide acetylated at K402] : 2.84 µM

Kd in this record for {Biotin-TTDS}-DEDQHTQITKV (Labelled 'PTEN' in Supp; source: synthetic peptide (Chemical Peptide Synthesis Service of the IGBMC)) [PTEN_11, 11-mer wild-type PDZ-binding motif peptide of PTEN] : 20.1 µM
